Experiment: refractive index (Na D-line) (dimensionless); xn = mol fraction of the nth substance listed
Conditions: 298.15 K; 101.3 kPa; Liquid; Standard Abbe refractometry; x2 = 0.9
property: refractive index
Write no unit; give the number alone.

Example entries and their recorded answers appear below.
>  <compound>
O=C1CCCCC1 [cyclohexanone] + CCCCCCCCCCO

>  <readout number>
1.4354

$$$$
>  <compound>
O=C1CCCCC1 [cyclohexanone] + CCCCCCCCO

>  <readout number>
1.4289

$$$$
>  <compound>
O=C1CCCCC1 [cyclohexanone] + CCO

>  <readout number>
1.3739

$$$$

q: Requested read-out: refractive index. Entry: O=C1CCCCC1 [cyclohexanone] + CCCCCCO
a: 1.4184

q: Requested read-out: refractive index. Entry: O=C1CCCCC1 [cyclohexanone] + CCCCO
a: 1.4035

q: Requested read-out: refractive index. Entry: O=C1CCCC1 [cyclopentanone] + OC1CCCCC1
a: 1.461
